All values here come from patent US7427686B2.

Test system: MCF-7 cells
measurement_description: cells
Assay type: cell-based, human
settings: cultured MCF-7 cells, 48 h; read-out: LC50 (the source's name)
Hi there, I'd appreciate the recorded CC50 for every entry that follows.
Write the answer as a number in µM, unit excluded.

[Q] Look up CC50 for this molecule: COc1ccc2c(c1)OC(C)(C)[C@@H](c1ccccc1)[C@@H]2c1ccc(OCC(O)CN2CCCCC2)cc1 (relative stereo)
[A] 17.8

[Q] Look up CC50 for this molecule: COc1ccc2c(c1)OC(C)(C)[C@@H](c1ccccc1)[C@@H]2c1ccc(OCC(O)CN2CCCC2)cc1 (relative stereo)
[A] 18.2
